Test system: HepG2
Test: Antiproliferative activity against human HepG2 cells incubated for 48 hrs by MTT assay
Type: functional, cell-based
Settings: HepG2, 48 h
pIC50: −log10 of the molar value.
experimental_endpoint: pIC50

Example cases with answers are listed next.
Cc1nc(N(C)c2cccc(OC(F)(F)F)c2)c2sccc2n1	< 7.00
COc1ccc(N(C)c2nc(C)nc3ccsc23)cc1[N+](=O)[O-]	7.73
COc1ccccc1N(C)c1nc(C)nc2ccsc12	< 7.00
Cc1ccc(N(C)c2nc(C)nc3ccsc23)cc1	< 7.00

Next compound, pIC50 to be filled in.
Exercise: For Cc1nc(N(C)c2ccc(Cl)c(Cl)c2)c2sccc2n1 , what is its reported pIC50?
Solution: < 7.00
